# Tested on: prion model
# procedure.summary: organism not typed
# Format: cell-based
assay.readout: activity at inhibiting the growth of the prion model in culture media

NC[C@@H]1O[C@H](O[C@H]2[C@@H](O)[C@H](O[C@@H]3[C@@H](O)[C@H](N)C[C@H](N)[C@H]3O[C@H]3O[C@H](CN)[C@@H](O)[C@H](O)[C@H]3N)O[C@@H]2CO)[C@H](N)[C@@H](O)[C@@H]1O.O=S(=O)(O)O [neomycin sulphate]	measurable activity
[Mn+2]	measurable activity
O=[N+]([O-])[O-].[Ag+] [silver nitrate]	measurable activity

Data provenance: patent US7129080B2
